Where do these numbers come from? They come from the RNAGym collection of RNA variant scans (doi:10.1073/pnas.2313332121).

B1: TPR 5TU (parent)
chain: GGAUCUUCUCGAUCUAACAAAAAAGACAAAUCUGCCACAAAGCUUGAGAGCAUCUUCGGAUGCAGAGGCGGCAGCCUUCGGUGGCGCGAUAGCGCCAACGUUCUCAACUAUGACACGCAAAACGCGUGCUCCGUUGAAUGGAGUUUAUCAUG

- Variants of: B1
- test.description: polymerase ribozyme fitness, log enrichment relative to wild type (log ratio); higher = more active; in vitro selection for triplet polymerase activity
Fewer inactive variants are shown than the library holds.
measurement.label: polymerase ribozyme fitness (log ratio)

mutation_list="A60G C116U" measurement_label="polymerase ribozyme fitness (log ratio)" censoring_sign== recorded_number=0.141
mutation_list="A17U G48C G50U C76A C93A" measurement_label="polymerase ribozyme fitness (log ratio)" censoring_sign=≤ recorded_number=-4.2
mutation_list="U9G C38U C54U C57A A60G" measurement_label="polymerase ribozyme fitness (log ratio)" censoring_sign=≤ recorded_number=-4.2
mutation_list="G92A U148C" measurement_label="polymerase ribozyme fitness (log ratio)" censoring_sign== recorded_number=-4.02
mutation_list="U7A U53A U56A" measurement_label="polymerase ribozyme fitness (log ratio)" censoring_sign=≤ recorded_number=-4.2
mutation_list="G50A G59A U101G" measurement_label="polymerase ribozyme fitness (log ratio)" censoring_sign== recorded_number=-0.0298
mutation_list="G143A U151G" measurement_label="polymerase ribozyme fitness (log ratio)" censoring_sign=≤ recorded_number=-4.2
mutation_list="A24U G34U G42A U55G A91C G94A" measurement_label="polymerase ribozyme fitness (log ratio)" censoring_sign== recorded_number=-3.62
mutation_list="A20U A28U G42C G86U C93A C114U" measurement_label="polymerase ribozyme fitness (log ratio)" censoring_sign== recorded_number=-4.17
mutation_list="A60C G80A" measurement_label="polymerase ribozyme fitness (log ratio)" censoring_sign== recorded_number=-2.27
mutation_list="C5G U9C A16C A28G A30U C32G C35A G59U G92U C105U" measurement_label="polymerase ribozyme fitness (log ratio)" censoring_sign=≤ recorded_number=-4.2
mutation_list="A73U C96A U109A C116U" measurement_label="polymerase ribozyme fitness (log ratio)" censoring_sign== recorded_number=-3.64
mutation_list="U4A G25U C35U C87A C93G" measurement_label="polymerase ribozyme fitness (log ratio)" censoring_sign=≤ recorded_number=-4.2
mutation_list="U13C A24C U45G G84U U135C" measurement_label="polymerase ribozyme fitness (log ratio)" censoring_sign=≤ recorded_number=-4.2
mutation_list="A17C C36U A47G C54A C85A C118A U127G U134C U151A" measurement_label="polymerase ribozyme fitness (log ratio)" censoring_sign=≤ recorded_number=-4.2
mutation_list="U56G U78C C85A C123U" measurement_label="polymerase ribozyme fitness (log ratio)" censoring_sign== recorded_number=-1.43
mutation_list="A73G C85U G88A A119U U134A G140C" measurement_label="polymerase ribozyme fitness (log ratio)" censoring_sign=≤ recorded_number=-4.2
mutation_list="U13G C75A C108G G143A" measurement_label="polymerase ribozyme fitness (log ratio)" censoring_sign=≤ recorded_number=-4.2
mutation_list="U61G C87U C125G" measurement_label="polymerase ribozyme fitness (log ratio)" censoring_sign=≤ recorded_number=-4.2
mutation_list="A21C G25A G92A G133U A150G" measurement_label="polymerase ribozyme fitness (log ratio)" censoring_sign=≤ recorded_number=-4.2
mutation_list="A47U U101G C116G" measurement_label="polymerase ribozyme fitness (log ratio)" censoring_sign== recorded_number=-2.38
mutation_list="A21C A26U C38U C87G C105U" measurement_label="polymerase ribozyme fitness (log ratio)" censoring_sign=≤ recorded_number=-4.2
